MEASURED ON: T1, GII.4 Sydney 2012 shell (S) domain (UniProt P54635 1-221)
T1 chain: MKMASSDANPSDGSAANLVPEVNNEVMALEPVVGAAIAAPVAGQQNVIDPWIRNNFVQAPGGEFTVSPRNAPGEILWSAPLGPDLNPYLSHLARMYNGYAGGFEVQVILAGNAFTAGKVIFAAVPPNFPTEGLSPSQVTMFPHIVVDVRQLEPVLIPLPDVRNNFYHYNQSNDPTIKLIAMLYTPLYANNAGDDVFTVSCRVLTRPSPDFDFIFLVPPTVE
EXPERIMENT DESCRIPTION: ELISA
MEASURED PARAMETER: EC50

# EC50 (binder: NORO-310A (antibody, V domains shown) VH: EVQLVESGGGLVRPGESLRLSCVASGFSVSDNYMSWVRQAPGKGLQWVSVIYSGGTTFYTDSVKGRFTISRDKSKNTLFLQMNSLRAEDTAVYFCTRDPSQYYDSRGHYYQTFTPSFDSWGQGTLVTVSS VL: DIQMTQSPSVMSASVGDRVTITCRASQDISDYLAWFQQKPGKVPKRLIYAASSLQNGVPSRFSGSGSGTEFTLTISSLQPEDFATYYCLQHDTYPLTFGGGTKVEIK ) is 19 nM

# EC50 (binder: NORO-202A.1 (antibody, V domains shown) VH: QVQLVQSGAEVKKPGASVKVSCKASEYTFTGYYLQWVRQAPGHGLEWMGWINPSGGTKYSQKFQGRVTMTRDTSITTVYMELSRLRSDDTAVYYCARDLLRNWGDHDAFDVWGQGTMVTVSS VL: QSVLTQPPSASETPGQGVTISCSGSSSNIGSNFVCWYQQVPGTAPKLLIYKNNQRPSGVPDRFSGSKSGTSASLAISGLRSEDEADYYCSAWDDSLSGPVFGGGTKLTVL ) is 3 nM

# EC50 (binder: NORO-279A (antibody, V domains shown) VH: QVQLVESGGGVVQPGRSLRLSCAASGFTFTKYGMHWVRQAPGKGLEWVAFIAYDGSVKYYGDSAKGRFAISRDNPKNTVYLQMNSLRAEDTAVYYCAKVEIHYYSNSLLGMDVWGQGTLVTVSS VL: QSVLTQPPSASGTPGQRVTISCSGGNSNIGISYVYWYQHLPGTAPKLLISKNNLRPSGVPDRFSASKSGTSASLAISGLRSEDEAEYYCATLDINMTWVFGGGTKLTVL ) is 3 nM

# EC50 (binder: NORO-178.6 (antibody, V domains shown) VH: QVQLVESGGGVVQPGRSLRLSCAASGFTFSTYGMNWVRQAPGRGLEWVADISYDGSNSRYADSVKGRFTISRDNSKNTLSLQMNGLRTEDTAVYYCAKDWYLAMAGAAFDSWGPGTLVTVSS VL: SSELTQDPVVSVALGQTVRITCQGDSLTTFYASWFQQKPGQAPALVLYGNDNRPSGIPDRFSGSRSGNTASLTITGAQAEDEADYYCNSRDSSGKPSFGGGTKLTVL ) is 8 nM

Each recorded value in this set is attributed to patent US20210324050A1.
